These compounds were tested on SN12C; CC50 is the recorded read-out.

{"columns": ["compound", "value-modifier", "CC50 [µM]"],
 "data": [
  ["C=C1C(=O)O[C@H]2[C@H]1CC/C(COC(=O)N1CCN(C)CC1)=C\\CC[C@@]1(C)O[C@@H]21 [JVM 2-44]", "=", 69.7],
  ["C=C1C(=O)O[C@H]2[C@H]1CC/C(COC(=O)NCCN1CCCCC1)=C\\CC[C@@]1(C)O[C@@H]21 [JVM 2-13]", "=", 58.5],
  ["C=C1C(=O)O[C@H]2[C@H]1CC/C(COC(=O)CCC(=O)N1CCC(C)CC1)=C\\CC[C@@]1(C)O[C@@H]21 [JVM 2-70]", "=", 51.9],
  ["C=C1C(=O)O[C@H]2[C@H]1CC/C(COC(=O)NCCO)=C\\CC[C@@]1(C)O[C@@H]21 [JVM 2-50]", ">", 100],
  ["C=C1C(=O)O[C@H]2[C@H]1CC/C(COC(=O)NC)=C\\CC[C@@]1(C)O[C@@H]21 [JVM 2-57]", "=", 78.1],
  ["C=C1C(=O)O[C@H]2[C@H]1CC/C(COC(=O)N1CCC(F)(F)CC1)=C\\CC[C@@]1(C)O[C@@H]21 [JVM 2-66]", "=", 37.7]
]}
